# tested.system: HDAC6 (Homo sapiens, UniProt Q9UBN7)
# Sequence (Q9UBN7 whole entry): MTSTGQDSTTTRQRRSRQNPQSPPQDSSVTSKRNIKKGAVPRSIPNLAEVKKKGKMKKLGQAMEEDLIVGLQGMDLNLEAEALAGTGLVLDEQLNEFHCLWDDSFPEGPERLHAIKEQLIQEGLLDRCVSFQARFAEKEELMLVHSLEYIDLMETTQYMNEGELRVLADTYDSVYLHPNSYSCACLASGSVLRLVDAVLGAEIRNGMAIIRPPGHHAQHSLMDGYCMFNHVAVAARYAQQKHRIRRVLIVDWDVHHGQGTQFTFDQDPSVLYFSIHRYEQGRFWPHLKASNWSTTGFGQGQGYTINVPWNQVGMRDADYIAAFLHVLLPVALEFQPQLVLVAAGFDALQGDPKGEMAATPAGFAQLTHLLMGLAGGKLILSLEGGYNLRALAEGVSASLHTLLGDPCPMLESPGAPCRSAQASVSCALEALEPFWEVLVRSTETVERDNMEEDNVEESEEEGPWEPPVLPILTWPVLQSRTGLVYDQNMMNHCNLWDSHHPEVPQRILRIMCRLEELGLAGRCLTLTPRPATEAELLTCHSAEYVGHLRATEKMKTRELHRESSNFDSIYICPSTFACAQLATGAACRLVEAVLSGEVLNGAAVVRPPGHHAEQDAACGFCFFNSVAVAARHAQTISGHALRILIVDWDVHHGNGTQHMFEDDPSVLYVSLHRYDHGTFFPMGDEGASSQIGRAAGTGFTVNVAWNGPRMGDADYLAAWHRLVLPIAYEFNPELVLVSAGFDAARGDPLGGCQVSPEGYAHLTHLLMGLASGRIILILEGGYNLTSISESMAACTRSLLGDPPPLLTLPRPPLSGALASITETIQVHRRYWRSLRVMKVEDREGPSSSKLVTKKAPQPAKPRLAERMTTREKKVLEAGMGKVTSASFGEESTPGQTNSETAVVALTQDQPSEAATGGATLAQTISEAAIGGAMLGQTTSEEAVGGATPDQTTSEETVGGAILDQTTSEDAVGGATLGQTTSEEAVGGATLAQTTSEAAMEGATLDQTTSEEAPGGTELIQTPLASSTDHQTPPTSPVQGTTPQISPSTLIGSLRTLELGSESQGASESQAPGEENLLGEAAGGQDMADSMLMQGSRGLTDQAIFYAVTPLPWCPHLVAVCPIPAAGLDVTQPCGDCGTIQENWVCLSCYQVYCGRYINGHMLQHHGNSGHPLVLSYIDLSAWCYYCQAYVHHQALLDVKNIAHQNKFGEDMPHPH
pIC50: −log10 of the molar value.
Use fulfilled when the recorded pIC50 is no lower than 8; use not fulfilled when it is lower.

{"compound": "CC(C)c1cc(C(=O)N(Cc2ccc(C(=O)NO)cc2)c2ccccc2)c(O)cc1O [Compound 66]", "label.class": "not fulfilled"}

Attention now shifts to the item below.
Tell me whether pIC50 is at least 8 here: COc1ccc(N(Cc2ccc(C(=O)NO)cc2)C(=O)c2cc(C(C)C)c(O)cc2O)cc1 [Compound 75]
fulfilled

----------
Observed IC50 for HSP90β (Homo sapiens, UniProt P08238), reported per entry below.
Answer shape: numeric part, then the unit.

The cases that follow already have their IC50 on record.
{"chemical.smiles": "CC(C)c1cc(C(=O)N(Cc2ccc(C(=O)NO)cc2)c2ccc(I)cc2)c(O)cc1O", "IC50": "272 nM"}
{"chemical.smiles": "CC(C)c1cc(C(=O)N(Cc2ccc(C(=O)NO)cc2)c2ccc(N3CCN(C)CC3)cc2)c(O)cc1O", "IC50": "60.5 nM"}

IC50 of `CC(C)c1cc(C(=O)N(Cc2ccc(C(=O)NO)cc2)c2ccc3c(c2)OCO3)c(O)cc1O` , assay on HSP90β (Homo sapiens, UniProt P08238), is 95.6 nM

----------
This section lists IC50 readings for UniProt O15379.
Sequence (O15379 whole entry): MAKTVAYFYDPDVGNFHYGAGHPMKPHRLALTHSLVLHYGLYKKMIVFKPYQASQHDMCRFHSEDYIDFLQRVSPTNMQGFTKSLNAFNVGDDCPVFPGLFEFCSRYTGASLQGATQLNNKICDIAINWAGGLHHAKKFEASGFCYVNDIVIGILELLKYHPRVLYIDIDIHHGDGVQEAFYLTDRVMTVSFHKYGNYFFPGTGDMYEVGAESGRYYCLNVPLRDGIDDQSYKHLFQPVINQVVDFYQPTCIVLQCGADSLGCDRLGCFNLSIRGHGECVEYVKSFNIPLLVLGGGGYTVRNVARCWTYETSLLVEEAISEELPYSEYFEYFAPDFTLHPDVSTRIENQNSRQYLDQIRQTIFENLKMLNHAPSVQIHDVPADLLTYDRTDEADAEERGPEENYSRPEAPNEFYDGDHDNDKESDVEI
Sequence (Q9Y618 395-489 partner limits assumed): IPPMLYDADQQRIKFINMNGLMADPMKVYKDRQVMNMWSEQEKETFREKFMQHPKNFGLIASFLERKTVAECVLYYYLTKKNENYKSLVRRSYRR
Output spec: scalar in µM, unitless text.

{"compound": "CC(C)c1cc(C(=O)N(Cc2ccc(C(=O)NO)cc2)c2ccc(O)cc2)c(O)cc1O [Compound 76]", "tested.system": "UniProt O15379", "output.unit": "µM", "IC50": 2.84}

Value (IC50, UniProt O15379) for record CC(C)c1cc(C(=O)N(C)Cc2ccc(C(=O)NO)cc2)c(O)cc1O [Compound 63] = 3.62

UniProt O15379 data for CC(C)c1cc(C(=O)N(Cc2ccc(C(=O)NO)cc2)c2ccccc2)c(O)cc1O [Compound 66] ; its IC50: 4.74

----------
Recorded measurements of IC50, one per entry
# tested.system: HDAC6 (Homo sapiens, UniProt Q9UBN7)
Answer in nM, number only, no unit symbol.

Recorded results for 2 compounds are shown here.
{"chemical.smiles": "CC(C)c1cc(C(=O)N(Cc2ccc(C(=O)NO)cc2)c2ccc(I)cc2)c(O)cc1O", "IC50 (nM)": 9.17}
{"chemical.smiles": "CC(C)c1cc(C(=O)N(Cc2ccc(C(=O)NO)cc2)c2ccc(N(C)C)cc2)c(O)cc1O", "IC50 (nM)": 13.7}

Record `CC(C)c1cc(C(=O)N(Cc2ccc(C(=O)NO)cc2)c2ccc(O)cc2)c(O)cc1O` , field IC50: 6.54
